Target: T1, Recombinant human TSLP-his (human, UniProt Q969D9 29-159)
T1 construct: Prepared in-house; Amine-coupled to CM5 chip in SPR, loaded on APS sensors in Octet, biotin-labeled in the capture ELISA, unlabeled in the cell functional assays; also called human TSLP-his protein
Experiment: SPR, Biacore T200; protocol of Example 2
With a cut-off of 100000 M⁻¹ s⁻¹, any kon strictly below it is called Condition met; any kon meeting it or above is called Condition not met.

Example entries begin here.
Binder | Qualitative label
Chimeric 1C5F12E9 (antibody, human IgG1, kappa, V domains shown, Human IgG1/kappa chimera expressed in 293F cells; also called chimeric 1C5F12E9 antibody) VH: QVQLQQPGTELVKPGASVKMSCKASGYTFTTYWMHWVKQRPGQGLEWIGVIDPSDSDTTYNQKFKGKATLTVDTSSSTAYMQLSSLTSEDSAVYYCTRSLDGYYDYWGQGTTLTVSS VL: DIQMTQSPASLSASVGETVTITCRPTENIYSYLAWYQQKQGKSPHLLVYFARTLAEGVPSRFSGSGSGTQFSLKINSLQPEDFGIYYCQHHYGTPWTFGGGTKLEIKR | Condition met
hu1C5F12E9-V11 (antibody, human IgG4 S228P, kappa, V domains shown) VH: QVQLVQSGAEVKKPGASVKVSCKASGYTFTTYWMHWVRQAPGQGLEWMGVIDPSDSDTTYNQKFKGKATMTRDTSTSTVYMELSSLRSEDTAVYYCTRSLDGYYDYWGQGTLVTVSS VL: DIQMTQSPSSLSASVGDRVTITCRPTENIYSYLAWYQQKPGKAPKLLIYFARTLAEGVPSRFSGSGSGTDFTLTISSLQPEDFATYYCQHHYGTPWTFGGGTKVEIKR | Condition met

Q. Does hu1C5F12E9-V15 (antibody, human IgG4 S228P, kappa, V domains shown) VH: QVQLVQSGAEVKKPGASVKVSCKASGYTFTTYWMHWVRQAPGQGLEWMGVIDPSDSDTTYNQKFKGRVTMTVDTSTSTVYMELSSLRSEDTAVYYCTRSLDGYYDYWGQGTLVTVSS VL: DIQMTQSPSSLSASVGDRVTITCRPTENIYSYLAWYQQKPGKSPKLLIYFARTLAEGVPSRFSGSGSGTDFTLTISSLQPEDFATYYCQHHYGTPWTFGGGTKVEIKR have kon strictly under 100000 M⁻¹ s⁻¹?
A. Condition not met

Q. Does hu1C5F12E9-V18 (antibody, human IgG4 S228P, kappa, V domains shown) VH: QVQLVQSGAEVKKPGASVKVSCKASGYTFTTYWMHWVRQAPGQGLEWMGVIDPSDSDTTYNQKFKGKATMTVDTSTSTVYMELSSLRSEDTAVYYCTRSLDGYYDYWGQGTLVTVSS VL: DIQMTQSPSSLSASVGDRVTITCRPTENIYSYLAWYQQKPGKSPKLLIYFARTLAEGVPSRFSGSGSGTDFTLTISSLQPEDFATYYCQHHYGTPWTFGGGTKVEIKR have kon strictly under 100000 M⁻¹ s⁻¹?
A. Condition not met

Q. Does hu1C5F12E9-V9 (antibody, human IgG4 S228P, kappa, V domains shown) VH: QVQLVQSGAEVKKPGASVKVSCKASGYTFTTYWMHWVRQAPGQGLEWMGVIDPSDSDTTYNQKFKGRVTMTVDTSTSTVYMELSSLRSEDTAVYYCTRSLDGYYDYWGQGTLVTVSS VL: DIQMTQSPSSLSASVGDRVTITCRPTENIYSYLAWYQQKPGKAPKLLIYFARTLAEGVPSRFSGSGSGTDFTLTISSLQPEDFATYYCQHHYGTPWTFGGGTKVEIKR have kon strictly under 100000 M⁻¹ s⁻¹?
A. Condition not met

Q. Does hu1C5F12E9-V16 (antibody, human IgG4 S228P, kappa, V domains shown) VH: QVQLVQSGAEVKKPGASVKVSCKASGYTFTTYWMHWVRQAPGQGLEWMGVIDPSDSDTTYNQKFKGRATMTRDTSTSTVYMELSSLRSEDTAVYYCTRSLDGYYDYWGQGTLVTVSS VL: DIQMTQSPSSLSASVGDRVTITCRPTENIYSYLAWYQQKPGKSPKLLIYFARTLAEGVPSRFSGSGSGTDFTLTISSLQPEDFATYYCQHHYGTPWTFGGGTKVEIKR have kon strictly under 100000 M⁻¹ s⁻¹?
A. Condition not met

Q. Does hu1C5F12E9-V13 (antibody, human IgG4 S228P, kappa, V domains shown) VH: QVQLVQSGAEVKKPGASVKVSCKASGYTFTTYWMHWVRQAPGQGLEWIGVIDPSDSDTTYNQKFKGRATLTVDTSSSTAYMELSSLRSEDTAVYYCTRSLDGYYDYWGQGTLVTVSS VL: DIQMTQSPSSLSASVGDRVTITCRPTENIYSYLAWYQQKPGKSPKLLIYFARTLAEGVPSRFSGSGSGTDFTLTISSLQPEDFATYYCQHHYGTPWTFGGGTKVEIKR have kon strictly under 100000 M⁻¹ s⁻¹?
A. Condition not met
